# Lookup of reported koff keyed by entry
Target: T1, Human MuSK (R&D Systems, cat. 10189-MK, histidine tag) (human, UniProt O15146 24-495)
T1 construct: Bought protein; also called human monomeric MuSK-6xhis; not shown: histidine tag (6xhis)
T1 sequence: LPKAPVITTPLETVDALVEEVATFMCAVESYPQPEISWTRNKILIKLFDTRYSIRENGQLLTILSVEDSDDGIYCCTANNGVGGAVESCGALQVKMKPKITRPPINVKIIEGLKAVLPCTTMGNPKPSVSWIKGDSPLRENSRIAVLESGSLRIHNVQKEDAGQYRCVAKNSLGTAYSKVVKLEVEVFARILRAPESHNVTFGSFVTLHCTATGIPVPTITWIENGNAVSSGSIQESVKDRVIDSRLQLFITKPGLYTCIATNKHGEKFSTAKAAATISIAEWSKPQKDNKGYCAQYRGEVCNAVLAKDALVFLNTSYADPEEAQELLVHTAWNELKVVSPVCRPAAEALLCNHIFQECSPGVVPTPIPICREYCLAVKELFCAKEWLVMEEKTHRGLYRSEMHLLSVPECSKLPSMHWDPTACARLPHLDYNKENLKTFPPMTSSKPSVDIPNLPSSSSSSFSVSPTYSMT
Assay: SPR (Biacore), pH 5.5 (summary table, repeats the average of Table 17)
READOUT_TYPE: koff (s⁻¹)

1) 3F6c (antibody, human IgG1, kappa, L234A L235A, V domains shown) VH: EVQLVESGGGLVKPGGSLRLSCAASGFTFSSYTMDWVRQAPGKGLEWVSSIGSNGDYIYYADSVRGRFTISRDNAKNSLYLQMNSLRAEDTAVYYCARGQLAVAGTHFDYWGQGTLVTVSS VL: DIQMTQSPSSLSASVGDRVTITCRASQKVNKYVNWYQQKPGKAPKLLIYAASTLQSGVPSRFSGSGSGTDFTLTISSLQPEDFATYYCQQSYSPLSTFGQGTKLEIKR | 0.0002
2) 3D9b (antibody, human IgG1, kappa, L234A L235A, V domains shown) VH: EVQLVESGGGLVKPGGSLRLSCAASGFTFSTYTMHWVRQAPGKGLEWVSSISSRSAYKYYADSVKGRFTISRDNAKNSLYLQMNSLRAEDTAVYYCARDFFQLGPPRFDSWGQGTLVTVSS VL: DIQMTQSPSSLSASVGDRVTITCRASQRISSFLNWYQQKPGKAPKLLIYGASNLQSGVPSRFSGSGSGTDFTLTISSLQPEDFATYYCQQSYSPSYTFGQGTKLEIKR | 4e-05
3) 3D10a (antibody, human IgG1, kappa, L234A L235A, V domains shown) VH: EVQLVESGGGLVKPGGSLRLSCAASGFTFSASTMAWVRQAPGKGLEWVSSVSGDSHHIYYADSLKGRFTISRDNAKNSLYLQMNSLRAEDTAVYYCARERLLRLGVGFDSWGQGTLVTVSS VL: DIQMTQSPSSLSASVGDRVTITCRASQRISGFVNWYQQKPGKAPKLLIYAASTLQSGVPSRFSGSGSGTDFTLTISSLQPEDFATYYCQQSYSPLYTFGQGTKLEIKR | 9e-05
4) 4D3 (antibody, human IgG1, kappa, L234A L235A, V domains shown) VH: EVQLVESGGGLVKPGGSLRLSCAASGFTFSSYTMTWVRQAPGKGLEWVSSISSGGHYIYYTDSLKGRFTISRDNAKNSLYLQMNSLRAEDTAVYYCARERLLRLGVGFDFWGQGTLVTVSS VL: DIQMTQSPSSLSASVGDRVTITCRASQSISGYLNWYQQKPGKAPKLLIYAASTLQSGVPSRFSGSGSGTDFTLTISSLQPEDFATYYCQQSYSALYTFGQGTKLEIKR | 0.00016
